Test system: Escherichia coli
Test: Inhibition of LspA in Escherichia coli CFT073imp4213 harboring outer membrane-permeable mutant assessed as inhibition of bacterial growth
Starred links: 1 amine or outer side, 2 acyl side, 3 side chain; linkers in the order of their positions; H or OH if unused. Non-standard residues stand in square brackets, D forms with d. Residues, ends and D or L forms follow the SMILES beside them. *: point of attachment. X1 = CCCCCC[C@@H](OC[C@@H](C)N[*:1])[C@@H](C)C(=O)[*:2]; NMeL = CN[C@@H](CC(C)C)C(=O)O; Chg = N[C@H](C(=O)O)C1CCCCC1; Dap = NC[C@H](N)C(=O)O; X11 = NCCCC*
// MIC lookup, one value per entry
Report only the number, with the unit µM understood.

Q) Quick one: MIC for CCCCCC[C@H]1OC[C@@H](C)NC(=O)[C@H](COCCCCN)NC(=O)[C@H](CN)NC(=O)[C@H](C2CCCCC2)NC(=O)[C@H](CC(C)C)N(C)C(=O)[C@@H]1C (cyclo([Chg][Dap]S(X11)[X1][NMeL])) ?
A) 0.18
